- System: HIV-1 Env pseudovirus MG505.W0M.ENV.A2
- PROTOCOL DETAILS: Single-cycle assay, Paired Infant and Maternal Env clones
- CONDITION SET: subtype A; NIH # 11528-M (maternal); MG505.W0M.ENV.A2
pIC50: −log10 of the molar value.

[
  {
    "COMPOUND": "Cc1nc([C@@H](CN)NC(=O)c2ccc(-c3ccc(F)c(F)c3)[nH]2)sc1CO (single isomer, unassigned) [NBD-14113, reference compound]",
    "TARGET DESC": "HIV-1 Env pseudovirus MG505.W0M.ENV.A2",
    "pIC50": 5.33
  }
]

---

- System: HIV-1 Env pseudovirus ZM109F.PB4
- PROTOCOL DETAILS: Single-cycle assay TZM-bl, Env pseudovirus panel
- CONDITION SET: subtype C; NIH # 11314; ZM109F.PB4; TZM-bl cells

[
  {
    "COMPOUND": "Cc1nc([C@@H](CN)NC(=O)c2ccc(-c3ccc(F)c(F)c3)[nH]2)sc1CO (single isomer, unassigned) [NBD-14113, reference compound]",
    "IC50 (nM)": 1900
  }
]

---

Some compounds, each annotated with its measured CC50 at 3 days.
- PROTOCOL DETAILS: Cytotoxicity
- Format: cell-based
- CONDITION SET: human, U87-CD4-CCR5 cells

[
  {
    "COMPOUND": "CNCC(NC(=O)c1ccc(-c2ccc3c(c2)OCO3)[nH]1)c1nc(CO)cs1 (stereo not drawn)",
    "CC50 at 3 days": "> 100 µM"
  },
  {
    "COMPOUND": "Cc1nc(C(CN)NC(=O)c2ccc(-c3ccc4c(c3)OCO4)[nH]2)sc1CO (stereo not drawn)",
    "CC50 at 3 days": "> 100 µM"
  },
  {
    "COMPOUND": "NCC(NC(=O)c1ccc(-c2ccc3c(c2)OCO3)[nH]1)c1ncc(CO)s1 (stereo not drawn)",
    "CC50 at 3 days": "> 100 µM"
  }
]

---

- System: HIV-1 Env pseudovirus CAP210.2.00.E8
- PROTOCOL DETAILS: Single-cycle assay TZM-bl, Env pseudovirus panel
- CONDITION SET: subtype C; NIH # 11317; CAP210.2.00.E8; TZM-bl cells
pIC50: −log10 of the molar value.

[
  {
    "COMPOUND": "Cc1nc([C@@H](CN)NC(=O)c2ccc(-c3ccc(F)c(F)c3)[nH]2)sc1CO (single isomer, unassigned) [NBD-14113, reference compound]",
    "pIC50": 5.43
  }
]

---

Some compounds, each annotated with its measured pIC50.
- Tested on: HIV-1 Env pseudovirus QG393.60M.ENV.B7
- PROTOCOL DETAILS: Single-cycle assay TZM-bl, Env pseudovirus panel
- CONDITION SET: TZM-bl
pIC50: −log10 of the molar value.
PROPERTY: pIC50

[
  {
    "COMPOUND": "Cc1nc(C(CN)NC(=O)c2ccc(-c3ccc4c(c3)OCO4)[nH]2)sc1CO (stereo not drawn)",
    "OBS VALUE": 5.28
  },
  {
    "COMPOUND": "CNCC(NC(=O)c1ccc(-c2ccc3c(c2)OCO3)[nH]1)c1nc(CO)cs1 (stereo not drawn)",
    "OBS VALUE": 5.42
  },
  {
    "COMPOUND": "NCC(NC(=O)c1ccc(-c2ccc3c(c2)OCO3)[nH]1)c1ncc(CO)s1 (stereo not drawn)",
    "OBS VALUE": 5.23
  }
]

---

- System: TZM-bl cells
- PROTOCOL DETAILS: Cytotoxicity
- Type: cell-based
- CONDITION SET: read-out: TZMb-l CC50; TZM-bl cells, 3 days, MTS; mean ± SD, n=3
Some compounds, each annotated with its measured CC50.

[
  {
    "COMPOUND": "CNCC(NC(=O)c1ccc(-c2ccc3c(c2)OCO3)[nH]1)c1nc(CO)cs1 (stereo not shown)",
    "RESULT UNIT": "µM",
    "CC50": 95.8
  },
  {
    "COMPOUND": "CC1(C)Oc2ccc(-c3ccc(C(=O)NC(CN)c4ncc(CO)s4)[nH]3)cc2O1 (stereo not shown)",
    "RESULT UNIT": "µM",
    "CC50": 61.1
  },
  {
    "COMPOUND": "NCC(NC(=O)c1ccc(-c2ccc3c(c2)OCO3)[nH]1)c1nc(CO)cs1 (stereo not shown)",
    "RESULT UNIT": "µM",
    "CC50": 105
  },
  {
    "COMPOUND": "NCC(NC(=O)c1ccc(-c2ccc3c(c2)OC(F)(F)O3)[nH]1)c1ncc(CO)s1 (stereo not shown)",
    "RESULT UNIT": "µM",
    "CC50": 38.7
  }
]

---

- Test system: HIV-1 panel of Paired Infant (B) and Maternal (M) Env Molecular Clones
- PROTOCOL DETAILS: Single-cycle assay, means over Paired Infant and Maternal Env clones
- CONDITION SET: Human immunodeficiency virus 1, read-out: IC50 Mean ± SEM: Mother (M)
Some compounds, each annotated with its measured IC50.
PROPERTY: IC50 (M)

[
  {
    "COMPOUND": "NCC(NC(=O)c1ccc(-c2ccc3c(c2)OCO3)[nH]1)c1ncc(CO)s1 (stereo not drawn)",
    "RESULT UNIT": "M",
    "OBS VALUE": "4.1e-06"
  },
  {
    "COMPOUND": "CNCC(NC(=O)c1ccc(-c2ccc3c(c2)OCO3)[nH]1)c1nc(CO)cs1 (stereo not drawn)",
    "RESULT UNIT": "M",
    "OBS VALUE": "3.8e-06"
  },
  {
    "COMPOUND": "Cc1nc(C(CN)NC(=O)c2ccc(-c3ccc4c(c3)OCO4)[nH]2)sc1CO (stereo not drawn)",
    "RESULT UNIT": "M",
    "OBS VALUE": "5.2e-06"
  }
]

---

- System: HIV-1 Env pseudovirus QG393.60M.ENV.B7
- PROTOCOL DETAILS: Single-cycle assay TZM-bl, Env pseudovirus panel
- CONDITION SET: subtype A2/D; NIH # 11906; QG393.60M.ENV.B7; TZM-bl cells
PROPERTY: IC50 (µM)

[
  {
    "MOLECULE": "Cc1nc([C@@H](CN)NC(=O)c2ccc(-c3ccc(F)c(F)c3)[nH]2)sc1CO (single isomer, unassigned) [NBD-14113, reference compound]",
    "OBS VALUE": 5.9
  }
]

---

- Test system: HIV-1 Env pseudovirus QA790.204I.ENV.C8
- PROTOCOL DETAILS: Single-cycle assay TZM-bl, Env pseudovirus panel
- CONDITION SET: subtype A1/D; NIH # 11903; QA790.204I.ENV.C8; TZM-bl cells
pIC50: −log10 of the molar value.

[
  {
    "COMPOUND": "Cc1nc([C@@H](CN)NC(=O)c2ccc(-c3ccc(F)c(F)c3)[nH]2)sc1CO (single isomer, unassigned) [NBD-14113, reference compound]",
    "pIC50": 5.37
  }
]

---

- Test system: human PBMC
- PROTOCOL DETAILS: Cytotoxicity
- Assay type: cell-based
- CONDITION SET: human PBMC, 7 days, MTS

[
  {
    "COMPOUND": "Cc1nc([C@@H](CN)NC(=O)c2ccc(-c3ccc(F)c(F)c3)[nH]2)sc1CO (single isomer, unassigned) [NBD-14113, reference compound]",
    "CC50 [µM]": 47.1
  }
]

---

- PROTOCOL DETAILS: Cytotoxicity
- Assay type: cell-based, human
- CONDITION SET: human, MT-2 cells, MT-2 CC50, MT-2 cells, MTS; mean ± SD, n=3

[
  {
    "COMPOUND": "NCC(NC(=O)c1ccc(-c2ccc3c(c2)OCO3)[nH]1)c1ncc(CO)s1 (stereo not shown)",
    "READING QUALIFIER": "=",
    "CC50 at 4 days [µM]": 192
  },
  {
    "COMPOUND": "Cc1nc(C(CN)NC(=O)C(=O)Nc2ccc3c(c2)OCO3)sc1CO (stereo not shown)",
    "READING QUALIFIER": "≥",
    "CC50 at 4 days [µM]": 650
  },
  {
    "COMPOUND": "NCC(NC(=O)c1ccc(-c2ccc3c(c2)OC(F)(F)O3)[nH]1)c1ncc(CO)s1 (stereo not shown)",
    "READING QUALIFIER": "=",
    "CC50 at 4 days [µM]": 43.4
  },
  {
    "COMPOUND": "CNCC(NC(=O)c1ccc(-c2ccc3c(c2)OCO3)[nH]1)c1nc(CO)cs1 (stereo not shown)",
    "READING QUALIFIER": "=",
    "CC50 at 4 days [µM]": 192
  }
]

src = paper PMC6446940
